- TARGET_UNDER_TEST: recombinant human IL-15 (Prospec cat no. CYT230) (human, UniProt P40933 49-162)
- Sequence (P40933 other isoform, or with tags, fused parts or gaps): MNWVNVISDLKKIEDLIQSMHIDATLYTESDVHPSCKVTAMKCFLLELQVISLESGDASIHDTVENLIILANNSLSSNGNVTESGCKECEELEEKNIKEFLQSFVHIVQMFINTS
- EXPERIMENT: ELISA, plate-bound human IL-15; printed as BC50 (half-maximal binding concentration)
The entries below come with measured pEC50 values attached.
Please express pEC50 as -log10 of the molar concentration.

Param item = huB-E29-12 (antibody, human IgG1, kappa, V domains shown, Humanized B-E29 variant; human IgG1 (G1m3) / kappa (Km3), produced in CHO cells; also called huVH10/huVL1) VH: EVRLMASGGGLVQPGGSLRLSCAASEFTFSNYAMSWVRQAPGKGLEWVATISRGGDYTYYPDTVKGRFTISRDNSKNTLYLQMNSLRAEDTAVYYCARRVSMITGGAAMDYWGQGTLVTVSS VL: DVVMTQSPLSLPVTLGQPASISCRSSQSIVDITGNTYLEWYQQRPGQSPRLLIYKVFNRFSGVPDRFSGSGSGTDFTLKISRVEAEDVGVYYCFQDSFVPYTFGQGTKLEIKR ; retrieve measured pEC50.
9.23

Param item = huB-E29-10 (antibody, human IgG1, kappa, V domains shown, Humanized B-E29 variant; human IgG1 (G1m3) / kappa (Km3), produced in CHO cells; also called huVH8/huVL1) VH: EVRLMASGGGLVQPGGSLRLSCAASEFTFSNYAMSWVRQAPGKGLEWVATISRGGDYTYYPDTVKGRFTISRDNSKNTLYLQMNSLRAEDTAVYYCARRVSMITGGYAMDYWGQGTLVTVSS VL: DVVMTQSPLSLPVTLGQPASISCRSSQSIVDITGNTYLEWYQQRPGQSPRLLIYKVFNRFSGVPDRFSGSGSGTDFTLKISRVEAEDVGVYYCFQDSFVPYTFGQGTKLEIKR ; retrieve measured pEC50.
9.29

Param item = 146B7 (comparative antibody 2) (antibody, V domains shown, Fully human antibody of the prior art (WO 03/017935), 'produced in the same expression system'; also called AMG 714; HuMaxIL-15) VH: EVQLVQSGAEVKKPGESLKISCKVSGYFFTTYWIGWVRQMPGKGLEYMGIIYPGDSDTRYSPSFQGQVTISADKSISTAYLQWSSLKASDTAMYYCARGGNWNCFDYWGQGTLVTVSS VL: EIVLTQSPGTLSLSPGERATLSCRASQSVSSSYLAWYQQKPGQAPRLLIYGASRRATGIPDRFSGSGSGTDFTLTISRLEPEDFAVYYCQRYGSSHTFGQGTKLEIS ; retrieve measured pEC50.
8.08
